test: Toxicity liver stage against HepG2, at 10uM; assay type: cell-based; design: test concentration 10 uM, cell line HepG2-A16-CD81EGFP; details: human, HepG2-A16-CD81EGFP cells; read-out: INHIBITION
API: label(entry) gives true if the entry's cytotoxicity at 10 µM is strictly smaller than -10%; on equality or larger values it gives false.

COMPOUND: Cn1cc(N2CC3(CCN(Cc4cccnc4)CC3)OCC2=O)cn1
ASSIGNED_CATEGORY: true

COMPOUND: CCOCCN1CCN(Cc2nnc(C3CC3)o2)CC1CC (stereo not given)
ASSIGNED_CATEGORY: false

COMPOUND: Cn1c(C2CC2)nc2c1CCN(CCc1ccccn1)C2
ASSIGNED_CATEGORY: false

COMPOUND: Clc1cc(CN2CCCCC2Cn2cncn2)c2ncccc2c1 (stereo not given)
ASSIGNED_CATEGORY: true

COMPOUND: c1ccc(CN2CCC(NCCSc3cnn[nH]3)C2)cc1 (stereo not given)
ASSIGNED_CATEGORY: false

----------
Items are presented alongside their recorded cytotoxicity at 10 µM.
experiment: Toxicity liver stage against HepG2, at 10uM; assay type: cell-based; parameters: test concentration 10 uM, cell line HepG2-A16-CD81EGFP; settings: human, HepG2-A16-CD81EGFP cells; read-out: INHIBITION

MOLECULE: CN(C)c1ncc(-c2cccc(C(N)=O)c2)c(C2CNCCO2)n1 (centres undefined)
cytotoxicity at 10 µM / %: -2.77
--
MOLECULE: CCn1ncc2c1C(COCC1CC1)CN(c1ccc(C)nn1)C2 (centres undefined)
cytotoxicity at 10 µM / %: 11.4
--
MOLECULE: O=C(O)c1ccc(CCNC(=O)C2(c3ccccc3)CC2)cc1
cytotoxicity at 10 µM / %: 8.29
--
MOLECULE: COCC(=O)N1CCCC2(CCN(c3ccccc3)C2=O)C1 (centres undefined)
cytotoxicity at 10 µM / %: -74.3
--
MOLECULE: Cc1cccn2c(NC(C)(C)C)c(C3CCN(C(=O)C4CC4)CC3)nc12
cytotoxicity at 10 µM / %: 3.53
--
MOLECULE: COc1ccc(-c2cnc(CN(CC(N)=O)C3CCCC3)o2)cc1
cytotoxicity at 10 µM / %: -7.95
--
MOLECULE: COc1ccc(CC(=O)N2CC[C@@H](OC)[C@@H]2Cc2cccnc2)cc1
cytotoxicity at 10 µM / %: 8.48
--
MOLECULE: Cc1nc(C(C)(C)NC(=O)Nc2ccncc2)no1
cytotoxicity at 10 µM / %: 9.32
--
MOLECULE: COc1cc(F)ccc1-c1nc2c([nH]1)c(C1CC1)nn2C
cytotoxicity at 10 µM / %: -1.72

----------
assay: Toxicity liver stage against HepG2, at 10uM; type: cell-based; design: test concentration 10 uM, cell line HepG2-A16-CD81EGFP; conditions: human, HepG2-A16-CD81EGFP cells; read-out: INHIBITION

MOLECULE: Cc1nn(C)c(N(C)C)c1CNCc1cccnc1-n1cncn1
cytotoxicity at 10 µM (%): -0.313
//
MOLECULE: COc1ccc(-c2cc(CN)ccc2F)c(OC)c1OC
cytotoxicity at 10 µM (%): 1.91
//
MOLECULE: COCC1CC2(CCNCC2)CN1Cc1csc(C)n1 (stereo unspecified)
cytotoxicity at 10 µM (%): 5.77
//
MOLECULE: Cc1ccc(CN2CC[C@H]3CO[C@H](CN(C)Cc4ccco4)[C@H]3C2)s1
cytotoxicity at 10 µM (%): 4.74
//
MOLECULE: Cc1cc(CN2CC[C@H]3C[C@@H](c4nccs4)O[C@@H]3C2)no1
cytotoxicity at 10 µM (%): -84.8
//
MOLECULE: CC(NC(=O)N1CCC(n2cncn2)CC1)c1ccc(F)cc1F (stereo unspecified)
cytotoxicity at 10 µM (%): -9.88
